# GI50 annotations
System: U-251
TEST DESCRIPTION: NCI tumour cell line growth inhibition, 48 h
Calls of active or inactive are those of the source. Rule as the data show it: active = GI50 up to about 1.1 µM and inactive = higher.
ATTRIBUTE MEASURED: GI50

{"COMPOUND": "CCOP(=O)(OCC)C(Nc1ccc(C(=O)O)cc1)c1ccc(C(Nc2ccc(C(=O)O)cc2)P(=O)(OCC)OCC)cc1 (stereo unspecified)", "ATTRIBUTE MEASURED": "GI50", "RESULT": "> 100 µM (inactive)"}
{"COMPOUND": "CCn1c(=O)c(C(=O)O)c(Cl)c2cc3c(cc21)OCO3", "ATTRIBUTE MEASURED": "GI50", "RESULT": "> 100 µM (inactive)"}
{"COMPOUND": "C=C1c2nc3ccccc3n2C=C(c2ccc(OC)cc2)N1c1ccccc1", "ATTRIBUTE MEASURED": "GI50", "RESULT": "5.31 µM (inactive)"}
{"COMPOUND": "CCCCCCc1cc2cc(-c3csc(-c4ccc(OC)cc4)n3)c(=O)oc2cc1O", "ATTRIBUTE MEASURED": "GI50", "RESULT": "5.24 µM (inactive)"}
{"COMPOUND": "CCOC(=O)C(C/C=C/CO)N(C)C(=O)OC(C)(C)C (stereo unspecified)", "ATTRIBUTE MEASURED": "GI50", "RESULT": "> 100 µM (inactive)"}
{"COMPOUND": "C[C@]12CC[C@H](OC3OC(CO)C(O)C(O)C3O)C[C@H]1CC[C@@H]1[C@@H]2CC[C@]2(C)[C@@H](C3=CCOC3=O)CC[C@]12O (stereo partly specified)", "ATTRIBUTE MEASURED": "GI50", "RESULT": "4.73 µM (inactive)"}
{"COMPOUND": "O=C1C(N2CCNCC2)=C(Cl)C(=O)c2ncccc21", "ATTRIBUTE MEASURED": "GI50", "RESULT": "> 10 µM (inactive)"}
{"COMPOUND": "S=c1nc(N2CCCCC2)ss1", "ATTRIBUTE MEASURED": "GI50", "RESULT": "18.2 µM (inactive)"}
{"COMPOUND": "CN(C)Cc1ccc(C(C)(C)C)cc1-c1cc(C(C)(C)C)ccc1CN(C)C", "ATTRIBUTE MEASURED": "GI50", "RESULT": "42.7 µM (inactive)"}
{"COMPOUND": "Cn1c(=O)c2nc3c(=O)n(C)c(=O)n(CC(N)=O)c3nc2n(C)c1=O", "ATTRIBUTE MEASURED": "GI50", "RESULT": "> 100 µM (inactive)"}
{"COMPOUND": "CCCNC(=O)NNC(=O)c1c[nH]c2nc(C)ccc2c1=O", "ATTRIBUTE MEASURED": "GI50", "RESULT": "> 100 µM (inactive)"}
{"COMPOUND": "O=c1cc(N2CCCC2)[nH]c(=O)n1-c1ccccc1", "ATTRIBUTE MEASURED": "GI50", "RESULT": "> 100 µM (inactive)"}
{"COMPOUND": "N#Cc1nc(COCCOCc2ccc(F)cc2)oc1N", "ATTRIBUTE MEASURED": "GI50", "RESULT": "> 100 µM (inactive)"}
{"COMPOUND": "Cc1ccc(C(=O)C2C=C(c3ccc(C)cc3)SC3C=CCC32)cc1 (stereo unspecified)", "ATTRIBUTE MEASURED": "GI50", "RESULT": "17.9 µM (inactive)"}
{"COMPOUND": "COc1cc2nc(-c3cccs3)oc(=O)c2cc1OC", "ATTRIBUTE MEASURED": "GI50", "RESULT": "38.5 µM (inactive)"}
{"COMPOUND": "C=CC1=C(C)c2cc3[nH]c(c4c5nc(cc6[nH]c(cc1n2)c(C)c6CC)C=C5C(=O)C4C(=O)OC)C(CCC(=O)OC/C=C(\\C)CCCC(C)CCCC(C)CCCC(C)C)C3C.C=CC1=C(C)c2cc3[nH]c(c4c5nc(cc6[nH]c(cc1n2)c(C=O)c6CC)C=C5C(=O)C4C(=O)OC)C(CCC(=O)OC/C=C(\\C)CCCC(C)CCCC(C)CCCC(C)C)C3C (stereo unspecified)", "ATTRIBUTE MEASURED": "GI50", "RESULT": "> 100 µM (inactive)"}
{"COMPOUND": "Cc1ccc(Oc2ccc(C(=O)c3cccc(C(=O)c4ccc(Oc5ccc(C)cc5)cc4)n3)cc2)cc1", "ATTRIBUTE MEASURED": "GI50", "RESULT": "> 100 µM (inactive)"}
{"COMPOUND": "Nc1c2c(nc3cc(F)c(F)cc13)CCC2", "ATTRIBUTE MEASURED": "GI50", "RESULT": "56.6 µM (inactive)"}
{"COMPOUND": "C=C1C(=O)OC2C1C(OC(=O)/C(C)=C/C)CC(O)(CCl)C1C(O)C=C(C)C21O (stereo unspecified)", "ATTRIBUTE MEASURED": "GI50", "RESULT": "27.5 µM (inactive)"}
{"COMPOUND": "N#Cc1nnn(-c2ccc(Br)cc2)c1O", "ATTRIBUTE MEASURED": "GI50", "RESULT": "> 100 µM (inactive)"}
{"COMPOUND": "O=C1c2ccccc2-n2nnnc2C2CSCN12 (stereo unspecified)", "ATTRIBUTE MEASURED": "GI50", "RESULT": "> 100 µM (inactive)"}
{"COMPOUND": "O=S(=O)(c1ccccc1)N1CCC1c1ccccc1 (stereo unspecified)", "ATTRIBUTE MEASURED": "GI50", "RESULT": "> 100 µM (inactive)"}
{"COMPOUND": "O=C(c1ccccc1)c1cccc(C(=O)c2ccccc2)c1", "ATTRIBUTE MEASURED": "GI50", "RESULT": "> 100 µM (inactive)"}
{"COMPOUND": "CC(CN1CCN(CC(C)Nc2ccnc3cc(Cl)ccc23)CC1)Nc1ccnc2cc(Cl)ccc12 (stereo unspecified)", "ATTRIBUTE MEASURED": "GI50", "RESULT": "18.5 µM (inactive)"}
{"COMPOUND": "COc1ccc(C2=C(N)c3c(Cl)cccc3C2=O)cc1", "ATTRIBUTE MEASURED": "GI50", "RESULT": "49.3 µM (inactive)"}
{"COMPOUND": "CC(C)CCCC(C)[C@H]1CCC(C2C[C@@H](O)[C@@H]3CC(O)[C@@H](O)C[C@]3(CO)C2=O)[C@]1(C)CCO (stereo partly specified)", "ATTRIBUTE MEASURED": "GI50", "RESULT": "19.4 µM (inactive)"}
{"COMPOUND": "CC(=O)N1N=C(c2cc(C)ccc2O)CC1c1cccc(Cl)c1 (stereo unspecified)", "ATTRIBUTE MEASURED": "GI50", "RESULT": "13.8 µM (inactive)"}
{"COMPOUND": "O=C1C(=C2CCCC2)CCC1CN1CCCCC1 (stereo unspecified)", "ATTRIBUTE MEASURED": "GI50", "RESULT": "> 100 µM (inactive)"}
{"COMPOUND": "C=CC1(C)CCC2=C(CCC3C(C)(C(=O)OC)CCCC23C)C1=O (stereo unspecified)", "ATTRIBUTE MEASURED": "GI50", "RESULT": "15.6 µM (inactive)"}
{"COMPOUND": "N#C/C(=C1/c2cc([N+](=O)[O-])ccc2-c2c1cc([N+](=O)[O-])cc2[N+](=O)[O-])N1CCCCC1", "ATTRIBUTE MEASURED": "GI50", "RESULT": "71.8 µM (inactive)"}
{"COMPOUND": "Cc1nc2ccccc2n1CCc1nc2ccccc2[nH]1", "ATTRIBUTE MEASURED": "GI50", "RESULT": "> 100 µM (inactive)"}
